pIC50 by entry:
target-or-system: recombinant human FLAP protein (Homo sapiens)
measurement-protocol: FLAP binding assay (Scintillation Proximity Assay, displacement of [125I]L-691,831)
recorded-conditions: recombinant human FLAP membranes, [125I]L-691,831 probe; read-out: FLAP SPA IC50
Quick note: pIC50 means taking -log10 of the concentration in moles per liter.

>  <compound>
Nc1ncc(-c2ccc(C3(c4noc(-c5ccnc(NCCO)c5)n4)CCC3)cc2)cn1

>  <pIC50>
8.49

$$$$
>  <compound>
Nc1ncc(-c2ccc(C3(c4noc(-c5cnn(C6CCNCC6)c5)n4)CCC3)cc2)cn1

>  <pIC50>
8.01

$$$$
>  <compound>
Cn1cnc(-c2nc(C3(c4ccc(-c5ccc(N)nc5)cc4)CCC3)no2)c1

>  <pIC50>
7.82

$$$$
>  <compound>
Cn1cc(-c2nc(C3(c4ccc(-c5cnc(N)c(C#N)c5)cc4)CCC3)no2)cn1

>  <pIC50>
8.03

$$$$
>  <compound>
COC(=O)[C@H]1CN(c2cnc(-c3nc(C4(c5ccc(-c6cnc(N)nc6)cc5)CCC4)no3)cn2)CCN1 [Example 308]

>  <pIC50>
8.30

$$$$
>  <compound>
Nc1ncc(-c2ccc(C3(c4noc(-c5ccc(NCCO)nc5)n4)CCC3)cc2)cn1

>  <pIC50>
9.07

$$$$

Req: Item Cn1cc(-c2nc(C3(c4ccc(-c5ccc(N)nc5)cc4)CCC3)no2)cn1 has what recorded pIC50?
Resp: 8.68

* * *

target-or-system: recombinant human FLAP protein (Homo sapiens, UniProt P20292)
Sequence (P20292 1-161): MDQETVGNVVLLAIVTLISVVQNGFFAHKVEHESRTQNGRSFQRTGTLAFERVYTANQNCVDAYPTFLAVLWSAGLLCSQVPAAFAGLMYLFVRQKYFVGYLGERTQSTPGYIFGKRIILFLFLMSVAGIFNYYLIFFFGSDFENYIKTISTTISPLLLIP
measurement-protocol: FLAP binding assay (Scintillation Proximity Assay, displacement of [125I]L-691,831)
recorded-conditions: recombinant human FLAP membranes, [125I]L-691,831 probe; read-out: FLAP SPA IC50
// boundary case: IC50 equal to 6 nM maps to no; strictly smaller maps to yes

>  <compound>
Nc1ncc(-c2ccc(C3(c4noc(-c5cc[nH]n5)n4)CCC3)cc2)cn1

>  <qualitative-label>
yes

$$$$
>  <compound>
Nc1ncc(-c2ccc(C3(c4noc(-c5ccnnc5)n4)CCC3)cc2)cn1

>  <qualitative-label>
no

$$$$
>  <compound>
CNC(=O)c1ccc(-c2nc(C3(c4ccc(-c5cnc(N)nc5)cc4)CCC3)no2)cn1

>  <qualitative-label>
yes

$$$$

Req: Answer whether the compound Nc1ncc(-c2ccc(C3(c4noc(-c5ccc(O)cc5)n4)CCC3)cc2)cn1 has IC50 strictly less than 6 nM
Resp: yes

* * *

target-or-system: recombinant human FLAP protein (Homo sapiens)
measurement-protocol: FLAP binding assay (Scintillation Proximity Assay, displacement of [125I]L-691,831)
recorded-conditions: recombinant human FLAP membranes, [125I]L-691,831 probe; read-out: FLAP SPA IC50
experimental-readout: IC50 (nM)
Field: numeric (nM). Do not append units.

Study these solved cases before continuing.
>  <record-smiles>
CC(C)N(C)C(=O)Cn1cc(-c2nc(C3(c4ccc(-c5cnc(N)nc5)cc4)CCC3)no2)cn1

>  <target-or-system>
recombinant human FLAP protein (Homo sapiens)

>  <experimental-readout>
IC50

>  <quantity-unit>
nM

>  <recorded-measurement>
2.6

$$$$
>  <record-smiles>
COCCNC(=O)Cn1cc(-c2nc(C3(c4ccc(-c5cnc(N)nc5)cc4)CCC3)no2)cn1

>  <target-or-system>
recombinant human FLAP protein (Homo sapiens)

>  <experimental-readout>
IC50

>  <quantity-unit>
nM

>  <recorded-measurement>
3.3

$$$$
>  <record-smiles>
Cc1cc(-c2nc(C3(c4ccc(-c5cnc(N)nc5)cc4)CCC3)no2)n(C)n1

>  <target-or-system>
recombinant human FLAP protein (Homo sapiens)

>  <experimental-readout>
IC50

>  <quantity-unit>
nM

>  <recorded-measurement>
6.6

$$$$

Req: Quick one: IC50 of CC(C)NC(=O)Cn1cc(-c2nc(C3(c4ccc(-c5cnc(N)nc5)cc4)CCC3)no2)cn1 ?
Resp: 2.8
